Cited source for all entries: paper PMC5770965

fold increase of Kd against wild type for assorted binders
Target: T1, KIX domain of CBP (UniProt P45481 586-666)
T1 construct: PDB 1KDX is the cited pKID/KIX structure and need not have the same limits
T1 sequence (P45481 586-666): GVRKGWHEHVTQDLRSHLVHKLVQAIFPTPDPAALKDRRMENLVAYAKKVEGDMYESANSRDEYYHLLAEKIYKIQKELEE
Assay: fluorescence polarisation; equilibrium fluorescence anisotropy of N-terminally FITC-labelled pKID peptides with KIX; buffer and conditions as in the accompanying article (ref. 42)
Details: both partners purified
Non-standard residues stand in square brackets, D forms with d. No end group written: not given here. *: point of attachment. FITC = O=C1OC2(c3ccc(O)cc3Oc3cc(O)ccc32)c2ccc(NC(=S)*)cc21; pS = N[C@@H](COP(=O)(O)O)C(=O)O

Illustrative cases are given below, each with its answer.
Quick check: fold increase of Kd against wild type of {FITC}-DSVTDSQKRREILSRRP[pS]ARKILNDLSSDAP (peptide, UniProt P15337-1 116-146, looked up, source: synthetic peptide, bought: Biomatik) [FITC-pKID Y134A] ?
~1000 fold

Dear colleague, I am looking for the recorded fold increase of Kd against wild type of the following binder: {FITC}-DSVTDSQKRREILSRRP[pS]YRKIANDLSSDAP (peptide, UniProt P15337-1 116-146, looked up, source: synthetic peptide, bought: Biomatik) [FITC-pKID L138A]
> 10 fold

For the binder shown here, {FITC}-DSVTDSQKRREIASRRP[pS]YRKILNDLSSDAP (peptide, UniProt P15337-1 116-146, looked up, source: synthetic peptide, bought: Biomatik) [FITC-pKID L128A] , give the reported fold increase of Kd against wild type.
> 10 fold

Further cases:
Query (binder): {FITC}-DSVTDSQKRREILSRRP[pS]YRKALNDLSSDAP (peptide, UniProt P15337-1 116-146, looked up, source: synthetic peptide, bought: Biomatik) [FITC-pKID I137A] ; field requested: fold increase of Kd against wild type
~100 fold
